Tested on: CCRF-CEM leukemia
Test: NCI tumour cell line growth inhibition, 48 h; in the data active = GI50 below about 0.43 µM; inactive = the rest
Hi there, use one of these labels in your reply, thanks! active, inactive

# input Give the logged outcome of this assay for the following compound: CCOc1ccc2c(-c3ccnc(Nc4cc(OC)cc(C(F)(F)F)c4)n3)cnn2n1
# output inactive

# input Test call for this compound, please: CN(C)c1ccc(Nc2c3ccccc3nc3ccccc23)cc1
# output inactive

# input Recorded test outcome, item COc1ccccc1/C=C1\COc2ccc(-c3ccccc3)cc2C1=O
# output inactive

# input Please state the recorded outcome for this compound: COc1ccc(C(=O)Cn2c(C(=O)c3ccccc3)nc3ccccc32)cc1
# output inactive

# input Recorded test outcome, item Cc1ccc(/C=C(\C#N)c2cc3ccccc3n2C)cc1
# output active

# input Outcome logged for O=C(CCN1CCCC1)Nc1ccc2c(NCc3ccccc3)c3ccccc3nc2c1 in this assay:
# output inactive

# input // param item: COC(=O)c1cc(-c2ccccc2)[nH]c1N/N=C/c1c(Cl)cccc1Cl ; yields the recorded call
# output active

# input Could you check what this test reported for Fc1ccc(-c2ncn(C3CCNCC3)c2-c2ccnc(Oc3ccc4c(c3)OCO4)n2)cc1 ?
# output inactive

# input Just curious, what result did Cc1c(CNc2ccc(C(=O)NC(CCCNC(=O)c3ccccc3C(=O)O)C(=O)O)cc2)cnc2nc(N)nc(N)c12 (configuration not stated) get here?
# output inactive

# input Name the outcome recorded for CCC[CH2][Sn]([CH2]CCC)([O]C(=O)c1cc(OC)c(OC)cc1OC)[O][Sn]([CH2]CCC)([CH2]CCC)[O]C(=O)c1cc(OC)c(OC)cc1OC in the assay.
# output active

# input In this assay, the call recorded for COc1cc(-c2nc3ccccc3s2)ccc1OCCCCOc1cc2c(cc1OC)C(=O)N1CCC[C@H]1C=N2 was what?
# output active

# input Can you look up the reported call for COc1cc2c3c(n(CCCN)c(=O)c2cc1OC)-c1ccc([N+](=O)[O-])cc1C3=O for me?
# output active

----------
Tested on: HT29 colon
Assay: NCI tumour cell line growth inhibition, 48 h
quantity.measured: TGI

# input // lookup TGI for CCN1C/C(=C\c2ccc(Cl)cc2)c2nc(N)c(C#N)c(-c3ccc(Cl)cc3)c2C1
# output > 100 µM

# input Consider the compound COc1ccc([C@H](CC(=O)O)N2CCN(CCCc3ccc4c(n3)NCCC4)C2=O)cn1 and give its measured TGI.
# output > 100 µM

# input // lookup TGI for CCCn1c(SCCSc2c3ccccc3c(-c3nc(F)nc(F)n3)n2CCC)c2ccccc2c1-c1nc(F)nc(F)n1
# output > 100 µM

# input Look at this compound and give its reported TGI. Nc1ccn(C2CC(F)C(CO)O2)c(=O)n1 (centres undefined)
# output > 100 µM

# input Find the recorded TGI belonging to C/C(=C\c1ccn(-c2ccccc2N)n1)[C@@H]1C[C@@H]2O[C@]2(C)CCC[C@H](C)[C@H](O)[C@@H](C)C(=O)C(C)(C)[C@@H](O)CC(=O)O1 and report it.
# output > 50 µM

# input Requested field: TGI. Item: O=C(NCCN1CCOCC1)OCc1nc2nc(Cl)nc(N3CCOCC3)c2[nH]1
# output > 100 µM

# input Value lookup for TGI; key = Cc1ccc(S(=O)(=O)N2C[C@@H]3CC[C@]4(CO[Si](C)(C)C(C)(C)C)N[C@@H](c5ccccc5)[C@H]2[C@H]34)cc1
# output 42.6 µM

# input compound: CCCCCCCCCCCC1=NC(C)(C)CN1C(C)(C)CO ; wanted: its TGI
# output 4.1 µM

# input Reported TGI for O=C1COc2cc(N3CCN(c4cccc(C(F)(F)F)c4)CC3)ccc2N1 : what is it?
# output > 100 µM

# input Which TGI is reported for this compound? Cc1ccc2nc3ccccc3c(NCc3ccc(Cl)cc3)c2c1
# output 7.73 µM

# input State the recorded TGI for this entry: CCO/C=C1\N=C(c2ccc(Cl)c(Cl)c2)OC1=O
# output > 100 µM

# input Which measured TGI value corresponds to COC(=O)C1=C(OC(=O)/C(=C/c2ccccc2)c2ccc(OC)cc2)C(C(=O)OC)[C@@]2(O)[C@@H](C(=O)OC)[C@H](C)C[C@@H]1[C@@H]2C(=O)OC (some centres undefined) ?
# output > 100 µM

# input Entry CC(=O)O[C@H]1CC[C@@]2(C)C(=CC[C@@H]3[C@@H]2CC[C@]2(C)C(=N/O)/C(=C\c4ccccc4)C[C@@H]32)C1 has what TGI?
# output > 100 µM

# input Please give the measured TGI for this compound: [N-]=[N+]=NC(c1cn(C2CC(O)C(CO)O2)c(=O)[nH]c1=O)C(Cl)Br (centres undefined)
# output > 100 µM

# input I have this compound here, COc1ccc(-c2cc(=O)n(-c3nc4ccccc4[nH]3)[nH]2)cc1OC , and I need its recorded TGI.
# output > 100 µM

# input Which value of TGI has been reported for N#Cc1nc(-c2ccc(F)cc2)oc1S(=O)(=O)N1CCCCC1 in the records?
# output 5.42 µM

# input Given the entry COc1ccccc1-n1c(=O)n(C)c(=O)n1C(C)(C)C , report its measured TGI.
# output > 100 µM

# input So what does the record say about TGI for C/C(CC(=O)Nc1cccc(Cl)c1C)=N\NC(N)=S ?
# output > 100 µM

# input Consider the compound O=C1NC(=O)c2ccccc2/C1=C/c1ccc2c(c1)OCO2 and give its measured TGI.
# output 44.8 µM

These data points were gathered from PubChem BioAssay (NCI).
